Procedure text: Metabolic stability in simulated intestinal fluid assessed as compound remaining after 2 hrs
Type: ADME
Condition info: read-out: Stability
Observable: remaining at 2 h (%)
Numeric only. Scale: %

Entry O=C(O)c1ccc(-n2cc(C(=O)c3c(Cl)cccc3Cl)c3cccc(F)c32)cc1 , remaining at 2 h reported as 99

###

Quick record of pIC50 values for Cytochrome P450 1A2 (Homo sapiens, UniProt P05177).
pIC50: −log10 of the molar value.

- Smiles structure: "O=C(O)c1ccc(-n2cc(C(=O)c3c(Cl)cccc3C(F)(F)F)c3ccccc32)cc1"
  pIC50: "< 4.60"

The value of pIC50 recorded for O=C(O)c1ccc(-n2cc(C(=O)c3c(Cl)cccc3Cl)c3c(F)cccc32)cc1 when tested on Cytochrome P450 1A2 (Homo sapiens, UniProt P05177) reads < 4.30
